These data points were gathered from PubChem BioAssay AID1159580.

Test: chemical genetic growth profiling, strain panel (AID 1159580);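 note: tested at 20 µM; growth read once vehicle control cultures reached saturation at 30 °C; 1 = growth at the plate median or of vehicle wells; lower values mean less growth of the strain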
Conditions: S. cerevisiae deletion strains, growth OD, locus YML094W, strain GIM5, hits give low values
In all, about 5,500 compounds went through this assay and about 2,000 (36%) were called active. Not shown: some 18% with an inconclusive outcome. The list shows a part of the results.
Observable: normalized growth
Give bare numbers.

// below: answered compounds
Compound	normalized growth
CCC(C(=O)Nc1ccc(C(F)(F)F)cc1)c1ccccc1 (centres undefined)	0.981
Cc1[nH]ncc1-c1ccccc1	0.974
N#Cc1c(N)sc2c1CCCCC2	0.878
CN1CCCC12NCCc1c2[nH]c2ccccc12 (centres undefined)	1.06
OC(CNCCc1cccs1)COc1ccccc1 (centres undefined)	1.06

For every item in the list below, what is its measured normalized growth?
1. O=[N+]([O-])c1ccc(SC2=NCCN2)c(Cl)c1
2. NC(=S)N/N=C\c1ccccc1
3. COc1ccc(NS(=O)(=O)c2c(C)noc2C)cc1
4. COc1ccc(OC)c(S(=O)(=O)N2CCc3cc(OC)c(OC)cc3C2C)c1 (centres undefined)
5. CC(C)N(Cc1ccc(N(C)C)cc1)S(=O)(=O)c1cc(Cl)c(Cl)cc1Cl
6. Cc1onc(NC(=O)NC(=O)c2c(F)cccc2Cl)c1Br

Marked response:
1. 0.972
2. 0.872
3. 1.07
4. 1.03
5. 1.02
6. 0.973

Quick request: normalized growth for each listed item, please.
1. O=[N+]([O-])c1ccc2nsnc2c1
2. CC(C)(C)C(=O)NC(=S)Nc1cccc(C(F)(F)F)c1
3. CSc1c(C#N)c(-c2cccs2)nn1C
4. COc1ccc(CCNC(=S)Nc2cccc(C(F)(F)F)c2)cc1OC
5. COC(=O)c1cc(OC)c(OC)cc1-n1c(C)ccc1C
6. CC(=O)N/C(=C/c1ccc2c(c1)OCO2)C(=O)O
7. COc1cccc(C2C3=C(CC(C)(C)CC3=O)OC3=C2C(=O)CC(C)(C)C3)c1O

Marked response:
[0.533, 0.846, 0.911, 0.968, 1, 1.01, 1.01]

Return reported normalized growth values for all items listed beneath this line.
1. CSC1=NCN(Cc2ccccc2)CN1
2. NC(=S)N/N=C\c1cccs1
3. O=C(NC(=S)Nc1ccccn1)c1ccccc1
4. CC1CCN(C(=O)CC#N)CC1
5. CSc1ccc(/C=C/[N+](=O)[O-])cc1

Marked response:
1: 0.981; 2: 0.92; 3: 0.777; 4: 0.991; 5: 0.0645

Hi! Can you tell me normalized growth for each of these compounds?
1. O=[N+]([O-])/C=C/c1ccsc1
2. CN(C)C=Nc1nnc(Sc2ncccc2[N+](=O)[O-])s1

Marked response:
0.0766
1.01

Batch request: normalized growth per item, same order as input.
1. CCSc1sc(C(=O)OC)c(-c2ccc(Cl)cc2)c1C#N
2. O=C(NC(=S)NCc1ccncc1)c1ccccc1
3. O=C(Nc1ccc(C(F)(F)F)cc1)Nc1ccccc1C(=O)O

Marked response:
1. 0.946
2. 1.01
3. 1

Batch request: normalized growth for each of the following compounds.
1. O=C(Nc1ccccc1F)C(Cl)Cl
2. COC(=O)c1ccc(-c2ccc(Cl)cc2)s1
3. CCCCCCNC(=O)NCCCCCC
4. CCOc1ccc(/C=C(\C)[N+](=O)[O-])cc1OC
5. Fc1cccc(Cl)c1CSc1nncn1-c1ccc(OCc2ccccc2)cc1
6. C#CCOc1c(Cl)cccc1Cl

Marked response:
1: 0.992; 2: 0.871; 3: 0.991; 4: 0.145; 5: 0.948; 6: 0.987
